- Tested on: NCI-H23 lung
- assay procedure: NCI-60 one-dose screen, 48 h (100 = growth as untreated, 0 = no growth, -100 = all killed)
- condition description: 10 µM unless noted
- Procedure: Growth inhibition of the NCI-H23 human Non-Small Cell Lung tumor cell line is measured as a screen for anti-cancer activity. Cells are grown in 96 well plates and exposed to the test compound for 48 hours. Compounds are tested at a single concentration, which is 10^-5 M for most compounds. The reported endpoint is percent growth (GI% or GIPRCNT), where numbers from 0 - 100% represent growth inhibition, and numbers from -100% - 0 represent cell death. […]
About 83,000 compounds went through this panel and 20% of them were active in at least one assay; those are over-represented in the sample as a whole.
growth of 90% or higher: YES. Under 90%: NO.

Cn1ccc2c1CC1CN(Cc3ccco3)C(=O)C1C2C(=O)O (stereo unspecified): YES

Would you say O=C1Nc2cc(-c3cccc([N+](=O)[O-])c3)ccc2/C1=C/c1ccc[nH]1 shows growth at minimum 90%? NO

Same question, Cc1ccc(NC(C(=O)c2ccccc2)c2ccccc2)cc1 (stereo unspecified) this time NO

CC/C(=C\c1ccc(OC)cc1)C(=O)c1ccc(OC)cc1 ? NO

Try Cc1c(C(=O)NCCC(=O)NO)sc2ncnc(Nc3ccc(NC(=O)Nc4cccc(C(F)(F)F)c4)cc3)c12 next. YES

And for COc1cc2nc(-c3ccc(C(F)(F)F)cc3)cc(OCCN3CCCCC3)c2cc1OC ? NO

###

Catalogue of compounds with associated growth
- Test system: CCRF-CEM leukemia
- assay procedure: NCI-60 one-dose screen, 48 h (100 = growth as untreated, 0 = no growth, -100 = all killed)
- condition description: 10 µM unless noted
This is part of a sample that, as a whole, favours compounds with a hit. Of some 83,000 tested, about 20% had one in any assay.
Write the answer as a number in %, unit excluded.

As a guide, the following entries are already answered.
Cc1cccc(-c2cn3ccnc3c(-c3ccc4ncn(Cc5ccccc5)c4c3)n2)c1: 78.9
CCN(CC)CCn1c(=O)c2cc(OC)c(OC)cc2c2ccc3cc4c(cc3c21)OCO4: 2.85
O=C1Nc2cc(Cl)ccc2/C1=C\c1c(-c2ccc(F)cc2)nc2ccccn12: 7.67

Entry Cc1cnc(C(=O)Nc2nc3ccc(S(=O)(=O)Nc4ccc(C(C)(C)C)cc4)cc3[nH]2)cn1 has what growth? 10.8

Try this compound next: O=C(/C=C/c1ccc(Cl)cc1)c1ccc(NC(=O)N2CCN(c3cc4c(cc3F)c(=O)c(C(=O)O)cn4C3CC3)CC2)cc1 72.2

Let us now turn to c1ccc2cc(Cn3c(-c4cccc5ccccc45)[n+](Cc4ccc5ccccc5c4)c4c5ccccc5c5ccccc5c43)ccc2c1 -17.4

Same question, Cc1ccc(NC(=O)Cc2ccc(/C=C/C(=O)c3ncc[nH]3)cc2)cc1 this time 4.85

Param item: OC(c1ccc(F)c(C(F)(F)F)c1)c1cnccc1NC1CCCCC1 (centres undefined) 57.2

Also COc1cc2c(c(OC)c1OC)CCC(c1cccc(NC(=O)c3cccc(Br)c3)c1)O2 (centres undefined) , if possible. 88

###

- System: TK-10 renal
- assay procedure: NCI-60 one-dose screen, 48 h (100 = growth as untreated, 0 = no growth, -100 = all killed)
- condition description: 10 µM unless noted
Compounds without any hit were thinned out: in the full panel of roughly 83,000, 20% have a hit. Active and inactive are the calls of the source. The calls were made as follows: active = growth percent below 10; inactive = the rest.
quantity kind: growth

Return reported growth; argument: Cc1ccc(-n2cc(-c3ccccc3)c3c2N=NN2CCN=C32)cc1 141% (inactive)

Also check CCN(CC)CCn1c(=O)c2cc(OC)c(OC)cc2c2ccc3cc4c(cc3c21)OCO4 67.6% (inactive)

Please do the same for CCNC(=O)Oc1ccc(/C(=C(\C)c2ccccc2)c2ccc(OCCN3CCCCC3)cc2)cc1 as well. 83.3% (inactive)

Also C=C(C)[C@@H]1CC[C@]2(C(=O)N3CCN(C)CC3)CC[C@]3(C)[C@H](CC[C@@H]4[C@@]5(C)CC[C@H](OCCC#N)C(C)(C)[C@@H]5CC[C@]43C)[C@@H]12 , if possible. 106% (inactive)

Subsequent entry: NC(=NCc1ccccc1)C(N=Nc1ccccc1)C(=O)NCc1ccccc1 (stereo not given) 69.6% (inactive)

Item: CCc1c(Cl)nc(N)nc1Nc1ccc(C)c(C)c1 103% (inactive)

Next entry: COc1cc(/C=C\C(=O)O)ccc1OCc1ccccc1 101% (inactive)

How about this compound: NC(=O)CSSCC(N)=O 110% (inactive)

How about CCN(c1ccccc1)S(=O)(=O)c1cc([N+](=O)[O-])ccc1Cl ? 107% (inactive)

Again, but for NC(=NCCCOc1ccc(F)cc1)Nc1ccc(I)cc1 73% (inactive)

Numbers sourced from PubChem BioAssay (NCI).
